# protocol_summary: Inhibition of Spanish flu (A/Bervig_Mission/1/18) neuraminidase
# Design: species or system Influenza A virus (A/Brevig Mission/1/1918(H1N1))
pIC50: −log10 of the molar value.
Label rule, in plain words: pIC50 of 5 and up is Condition met, under 5 is Condition not met.

compound: COc1cc(O)c2c(=O)c(OC)c(-c3ccc(O)cc3)oc2c1
group_label: Condition not met
//
compound: COc1c(CC=C(C)C)c(O)cc2oc(=O)c3c4ccc(O)cc4oc3c12
group_label: Condition met
//
compound: COc1c2c(cc3oc(=O)c4c5ccc(O)cc5oc4c13)OC(C)(C)CC2
group_label: Condition not met
//
compound: O=C1C[C@@H](c2ccc(O[C@@H]3O[C@H](CO)[C@@H](O)[C@H](O)[C@H]3O[C@H]3OC[C@@](O)(CO)[C@@H]3O)cc2)Oc2cc(O)ccc21 [LIQUIRITIN APIOSIDE]
group_label: Condition not met
//
compound: CC(C)=CCc1c(O)cc2oc(-c3ccc(O)cc3)c(O)c(=O)c2c1O
group_label: Condition not met
